tested on: RPMI-8226 leukemia; assay: NCI tumour cell line growth inhibition, 48 h
Here the recorded TGI is given for each entry.

Some solved entries appear below for comparison.
COc1cc2cccc(N=Cc3cccc(OC)c3OC(C)C)c2cc1OC: 37.7 µM
Cc1cc(C2(O)C=C(C(C)(C)C)C(=O)C(C(C)(C)C)=C2)c(C)cc1C1(O)C=C(C(C)(C)C)C(=O)C(C(C)(C)C)=C1: > 100 µM
COc1ccc(/C=N/N=C(\N)NO)c(O)c1: > 10 µM

(Q) What value of measured TGI is listed for Cc1ccc(-c2cc(N)n(-c3nc4c(c(=O)n(C)c(=O)n4C)n3C)n2)cc1 ?
(A) > 100 µM

###

system: K-562 leukemia; test: NCI tumour cell line growth inhibition, 48 h
Recorded TGI for the following molecules

Completed entries (count: 3):
Nc1c(Cl)ncnc1N[C@@H]1C[C@H]1CO: > 100 µM
N=C(N)c1ccc(N=Nc2c(O)ccc3c2[nH]c2ccccc23)cc1: 4.02 µM
C[C@]12CCc3nc(Nc4ccccc4)sc3C1=CC[C@@H]1[C@@H]2CC[C@]2(C)/C(=N/NC(N)=S)CC[C@@H]12: > 100 µM

(Q) Name the recorded TGI for COc1ccc(Nc2nc(NS(=O)(=O)c3cc(C)c(Cl)cc3S)n[nH]2)cc1 .
(A) > 100 µM

(Q) What does the record list as TGI for N#C/C(=C\n1ccc(=O)[nH]c1=S)C(N)=O ?
(A) > 100 µM

(Q) For the molecule CC(C)S(=O)(=O)c1ccccc1Nc1nc(Nc2cccc(NC(=O)CN)c2)ncc1Cl , what TGI is on record?
(A) 2.55 µM

###

tested on: HCT-116 colon; test: NCI tumour cell line growth inhibition, 48 h
Reported Endpoint: TGI

Example results:
O=C1Nc2c(ccc(Cl)c2I)C1=O: 33.4 µM
CN(NC(=O)c1cccs1)C1=NCCCN1: > 100 µM
COc1ccc(-c2oc3cc(O)c(OC)c(O)c3c(=O)c2OC)cc1O: 6.56 µM
O=C1c2ccccc2-c2nc(-c3cccc([N+](=O)[O-])c3)nnc21: > 100 µM

(Q) // lookup TGI for CCOC(=O)c1c[nH]c2oc(/C=N/N3CC(CN4CCOCC4)OC3=O)cc2c1=O (stereo unspecified)
(A) > 100 µM

(Q) Name the reported TGI value associated with the molecule Cn1cc(C2=C(c3cn(CCCCCN)c4ccccc34)C(=O)NC2=O)c2ccccc21
(A) > 16.7 µM

###

tested on: SF-295 CNS; assay: NCI tumour cell line growth inhibition, 48 h
Reported Endpoint: TGI

CC(=O)C1=C(C)NC2C=CC=CN12 (stereo unspecified): > 100 µM
CCC1(C)N=C(c2cnccn2)NN1c1ccc(Cl)cc1 (stereo unspecified): > 100 µM
Oc1cn(-c2ccc(Cl)cc2)nc1-c1n[nH]c(=S)n1C1CCCCC1: 0.479 µM
CCOC(=O)CNC(=O)c1ccccc1Nc1ccnc(C(F)(F)F)c1: > 100 µM
N=C(N)SCc1cccc(-c2nc3ccccc3c(=O)o2)c1: > 100 µM

Read the next record carefully.
(Q) Look at this compound and give its reported TGI. COC(=O)[C@@H]1CCCN1CCN1CCC[C@H]1C(=O)OC
(A) > 100 µM

###

Consider the following molecules and their measured TGI readings.
tested on: CAKI-1 renal; experiment: NCI tumour cell line growth inhibition, 48 h
Lab book: enter the figure in µM, no units written.

// worked examples, TGI included
O=C(CSC(c1ccccc1)c1ccccc1)N/N=C/c1ccc(Cl)cc1Cl: 83
Cc1cn2c(/C=C3\C(=O)N(C)c4ccc(O)cc43)c(C)nc2s1: 45.8
Nc1nc(CCl)nc(Nc2ccccc2)n1: 24.8
O=c1[nH]/c(=C/c2ccc(OCc3ccccc3)cn2)c(=O)[nH]/c1=C/c1ccc(O)cc1: 3.08

(Q) Write down the reported TGI of O=C1c2ccccc2-c2nc(-c3cccc([N+](=O)[O-])c3)nnc21 , test system: CAKI-1 renal.
(A) 12.6
